Test: qHTS assay for measurement of the activity of small molecule inhibitors on Zika virus induced Caspase-3 activity in human iPSC derived neural progenitor cells (hNPCs) (AID 1224857); note: % of control where 0% means no effect; nearly all actives have a fitted effect of over 65% in size
Settings: hNPCs ZIKV-induced caspase-3/7, Caspase-Glo luminescence, 6 h; series mostly up to 45.7 µM
Records with an inconclusive call do not appear. The source made the active and inactive calls. Calls come from the whole dose curve; as a rule, active = well fitted inhibition curve with a large enough effect; inconclusive = small, poorly fitted or top-dose-only effect; inactive = no such curve, though single readings can be large or run the other way.
metric: outcome

[[record]]
smiles_record = "CN(C)CCN(C)C(=O)c1ccc(NC(=O)Nc2ccc(-c3nc(N4CCOCC4)c4ccn(CC(F)(F)F)c4n3)cc2)cc1"
metric = "outcome"
reported_measurement = "inactive"

[[record]]
smiles_record = "CS(=O)(=O)c1ccc(C2=C(c3ccccc3)C(=O)OC2)cc1"
metric = "outcome"
reported_measurement = "inactive"

[[record]]
smiles_record = "C[C@@H](NC(=O)c1ncnc(N)c1Cl)c1ncc(C(=O)Nc2cc(C(F)(F)F)c(Cl)cn2)s1"
metric = "outcome"
reported_measurement = "inactive"


----------
Assay: qHTS assay for measurement of the activity of small molecule inhibitors on Zika virus induced Caspase-3 activity in human astrocytoma cells (AID 1224859)
Conditions: SNB-19 ZIKV-induced caspase-3/7, luminescence, 6 h; series mostly up to 45.7 µM
Activity calls are given as the source filed them. Calls come from the whole dose curve; as a rule, active = well fitted inhibition curve with a large enough effect; inconclusive = small, poorly fitted or top-dose-only effect; inactive = no such curve, though single readings can be large or run the other way.
Possible outcomes: 1 = active, 0 = inactive

[[record]]
compound = "CC(C)c1onc(-c2c(Cl)cccc2Cl)c1COc1ccc(C=Cc2cccc(C(=O)O)c2)c(Cl)c1"
label_value = 0

[[record]]
compound = "O=C(Nc1ccc(OC(F)(F)F)cc1)c1sccc1NCc1ccnc2ccccc12"
label_value = 1

[[record]]
compound = "CN1CC(=O)N2C(Cc3c([nH]c4ccccc34)[C@H]2c2ccc3c(c2)OCO3)C1=O (some centres undefined)"
label_value = 0

[[record]]
compound = "FC(F)(F)c1ccc(C=Cc2nc(COc3ccc(CCCCn4ccnn4)cc3)co2)cc1"
label_value = 0


----------
Experiment: Quantitative High-Throughput drug screen in 47 multiple myeloma cell lines against the NCATS MIPE library collection: Karpas25_ECACC cell viability assay (AID 1918968; note: nearly all actives have a fitted effect of over 35% in size)
Conditions: Karpas25 myeloma viability, CellTiter-Glo ATP, 48 h; series mostly up to 45.8 µM
Inconclusive results are not listed. Calls of active or inactive are those of the source. The call rests on the fitted dose curve; in most records, active means well fitted cell-killing curve with a large enough effect; inconclusive means small, poorly fitted or top-dose-only effect, or effect the other way; inactive means no such curve, though single readings can be large or run the other way.
Outcome codes: active, inactive

[[record]]
smiles_record = "CNC(=O)c1ccc2c(C(=Nc3cccc(CN(C)C)c3)c3ccccc3)c(O)[nH]c2c1"
label_value = "active"

[[record]]
smiles_record = "CC[C@H](C)n1cc(C)c2c(C(=O)NCc3c(C)cc(C)[nH]c3=O)cc(-c3ccc(N4CCNCC4)nc3)cc21"
label_value = "active"

[[record]]
smiles_record = "Fc1ccc(C(c2ccc(F)cc2)N2CCN(CC=Cc3ccccc3)CC2)cc1"
label_value = "inactive"

[[record]]
smiles_record = "CCNC(=O)[C@H]1O[C@@H](n2cnc3c(N)nc(NCCc4ccc(CCC(=O)O)cc4)nc32)[C@H](O)[C@H]1O"
label_value = "active"


----------
Assay: qHTS for identification of novel therapeutic agents for treatment of microphthalmiaassociated transcription factor (MiT) renal cell carcinoma (RCC) (AID 1963991);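 note: curves scaled with 100% = DMSO viability and 0% = empty wells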
Settings: TFE3-RCC UOK109 viability, CellTiter-Glo, 48 h; measured here: UOK109 Z-AUC; stronger effect = lower value
Results filed as inconclusive are left out.
Reported z-score values are given for each entry in this list.
metric: z-score

[[record]]
molecule = "c1ccc(CNc2nc(N3CCOc4ccccc43)nc3c2CCCC3)cc1"
reported_measurement = 0.901

[[record]]
molecule = "CCN1C[C@H](C)n2c(c(O)c3c(=O)n(Cc4ccc(F)c(Cl)c4)nc(C(=O)NC)c32)C1=O"
reported_measurement = 0.808

[[record]]
molecule = "CC(C)=CCCC(C)=CCCC(C)=CCCC(C)=CCCC(C)=CCCC(C)=CCCC(C)=CCCC(C)=CCCC(C)=CCO"
reported_measurement = 0.865

[[record]]
molecule = "Cc1nc2c([nH]1)CCN(C(=O)c1ccc(NC(=O)c3ccccc3-c3ccccc3)cc1)c1ccccc1-2"
reported_measurement = -0.104

[[record]]
molecule = "COc1cc(CNC(=O)CCCCC=CC(C)C)ccc1O"
reported_measurement = 0.273

[[record]]
molecule = "O=C1NC(=O)C(c2cnc3ccccn23)=C1c1cn2c3c(cccc13)CN(C(=O)N1CCOCC1)CC2"
reported_measurement = -1.6

[[record]]
molecule = "CCCCCOC(=O)Nc1nc(=O)n([C@@H]2O[C@H](C)[C@@H](O)C2O)cc1F (stereo partly specified)"
reported_measurement = 0.259

[[record]]
molecule = "COc1cc2c(cc1OC)[C@@H]1Cc3ccc(OC)c(OC)c3CN1CC2"
reported_measurement = 0.652

[[record]]
molecule = "CNC1[C@H](O)C(O[C@@H]2C(O)C(O[C@H]3O[C@H]([C@@H](C)NC)CC[C@H]3N)[C@@H](N)C[C@H]2N)OC[C@]1(C)O (stereo partly specified)"
reported_measurement = 0.654

[[record]]
molecule = "O=C(NCCCCN1CCOCC1)c1cc2ccccc2o1"
reported_measurement = 0.969

[[record]]
molecule = "C[C@@H]1C[C@H]2[C@@H]3CCC4=CC(=O)C=C[C@]4(C)[C@@]3(F)[C@@H](O)C[C@]2(C)[C@@]1(O)C(=O)CO"
reported_measurement = 0.745


----------
Assay: Quantitative High-Throughput drug screen in 47 multiple myeloma cell lines against the NCATS MIPE library collection: JJN3_DSMZ cell viability assay (AID 1918966; note: potency is the fitted concentration of half-maximal effect; nearly all actives have a fitted effect of over 50% in size)
Conditions: JJN3 myeloma cells viability, CellTiter-Glo ATP, 48 h; series mostly up to 45.8 µM
Records with an inconclusive call do not appear. Calls of active or inactive are those of the source. The call rests on the fitted dose curve; in most records, active means well fitted cell-killing curve with a large enough effect; inconclusive means small, poorly fitted or top-dose-only effect, or effect the other way; inactive means no such curve, though single readings can be large or run the other way.
Parameter: Potency. Scope: all listed entries.
metric: Potency

[[record]]
smiles_record = "O=c1[nH]nc(OCCCc2ccc(Cl)cc2)c(NCc2cccnc2)c1Br"
reported_measurement = "20.9 µM (active)"

[[record]]
smiles_record = "Cc1cccc(-c2[nH]c(C(C)(C)C)nc2-c2ccc3c(c2)OCO3)n1"
reported_measurement = "14.8 µM (active)"


----------
Test: qHTS of pediatric cancer cell lines to identify multiple opportunities for drug repurposing: Confirmatory screen for LAN-5 cells (AID 1347113); note: nearly all actives have a fitted effect of over 65% in size
Settings: LAN-5 neuroblastoma cell viability; series mostly up to 45.9 µM
Records with an inconclusive call do not appear. Active and inactive are the calls of the source. Calls come from the whole dose curve; as a rule, active = well fitted cell-killing curve with a large enough effect; inconclusive = small, poorly fitted or top-dose-only effect, or effect the other way; inactive = no such curve, though single readings can be large or run the other way.
Outcomes: active, inactive

[[record]]
smiles_record = "Nc1ncnc2c1ncn2[C@@H]1O[C@H](CO)[C@@H](O)[C@@H]1O"
label_value = "active"

[[record]]
smiles_record = "CCC(=O)N1CCN(c2ccc(-n3c(=O)ccc4cnc5ccc(-c6cnc7ccccc7c6)cc5c43)cc2C(F)(F)F)CC1"
label_value = "inactive"

[[record]]
smiles_record = "C[C@@H]1C[C@H]2[C@@H]3CCC4=CC(=O)C=C[C@]4(C)[C@@]3(F)[C@@H](O)C[C@]2(C)[C@@]1(O)C(=O)CO"
label_value = "inactive"

[[record]]
smiles_record = "O=C(CC12CC3CC(CC(C3)C1)C2)Nc1cccc2nc(NCCNCCO)ccc12"
label_value = "inactive"

[[record]]
smiles_record = "CN(C)CC[C@H](CSc1ccccc1)Nc1ccc(S(=O)(=O)NC(=O)c2ccc(N3CCN(Cc4ccccc4-c4ccc(Cl)cc4)CC3)cc2)cc1[N+](=O)[O-]"
label_value = "active"

[[record]]
smiles_record = "Cc1ccc(C(=O)N(CCCN)[C@@H](c2oc3cc(Cl)ccc3c(=O)c2Cc2ccccc2)C(C)C)cc1"
label_value = "active"

[[record]]
smiles_record = "CC(=O)N1CCN(c2ccc(OCc3nn(C)c(C)c3-c3cccc4c(CCCOc5cc(C)c(Cl)c(C)c5)c(C(=O)O)n(Cc5cccnc5)c34)cc2)CC1"
label_value = "inactive"


----------
Reported cell viability, % of control (lower = more cytotoxic) by item:
Assay: High-throughput drug toxicity screening in the BPDCN cell line Gen2.2 (AID 1224824);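 note: cells exposed to compounds for 48 h before reading; 100% = DMSO and 0% = bortezomib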
Details: Gen2.2 BPDCN cells; at 45.8 µM (top of the series) unless noted
metric: cell viability, % of control (lower = more cytotoxic)

[[record]]
molecule = "C[C@@H]1O[C@@H](O[C@H]2CC[C@@]3(C)[C@H](CC[C@@H]4[C@H]3C[C@@H](O)[C@]3(C)[C@@H](C5=CC(=O)OC5)CC[C@]43O)C2)C[C@H](O)[C@@H]1O[C@H]1C[C@H](O)[C@H](O[C@H]2C[C@H](O)[C@@H](O)[C@@H](C)O2)[C@H](C)O1 (stereo in doubt)"
reported_measurement = "7.85% [at 92.2 µM]"

[[record]]
molecule = "COc1cc2c(cc1OC)CC(=O)N(CCCN(C)C[C@H]1Cc3cc(OC)c(OC)cc31)CC2"
reported_measurement = "163%"

[[record]]
molecule = "COc1cc2nccc(Oc3ccc(NC(=O)Nc4ccc(F)cc4F)c(F)c3)c2cc1OC"
reported_measurement = "205%"

[[record]]
molecule = "COc1cc(Cl)cn2c(-c3cccc(NC4CNC4)n3)cnc12"
reported_measurement = "91.4%"

[[record]]
molecule = "COc1cccc(OC)c1-c1cc(C(=O)NC2(C(=O)O)C3CC4CC(C3)CC2C4)nn1-c1ccnc2cc(Cl)ccc12 (stereo not drawn)"
reported_measurement = "119%"

[[record]]
molecule = "COc1ccc2ccc(=O)oc2c1CC=C(C)C"
reported_measurement = "124%"

[[record]]
molecule = "CC[C@]1(O)C[C@H]2CN(CCC3=c4ccccc4=N[C]3[C@@](C(=O)OC)(c3cc4c(cc3OC)N(C)[C@H]3[C@@](O)(C(N)=O)[C@H](O)[C@]5(CC)C=CCN6CC[C@]43[C@@H]65)C2)C1"
reported_measurement = "14.7%"

[[record]]
molecule = "OC1CCC(Nc2ncc3nc(Nc4c(F)cc(F)cc4F)n([C@@H]4CCOC4)c3n2)CC1 (stereo partly drawn)"
reported_measurement = "62.2%"

